Target: GST-Dm-Relish (Drosophila melanogaster, UniProt Q94527 99-473)
Sequence: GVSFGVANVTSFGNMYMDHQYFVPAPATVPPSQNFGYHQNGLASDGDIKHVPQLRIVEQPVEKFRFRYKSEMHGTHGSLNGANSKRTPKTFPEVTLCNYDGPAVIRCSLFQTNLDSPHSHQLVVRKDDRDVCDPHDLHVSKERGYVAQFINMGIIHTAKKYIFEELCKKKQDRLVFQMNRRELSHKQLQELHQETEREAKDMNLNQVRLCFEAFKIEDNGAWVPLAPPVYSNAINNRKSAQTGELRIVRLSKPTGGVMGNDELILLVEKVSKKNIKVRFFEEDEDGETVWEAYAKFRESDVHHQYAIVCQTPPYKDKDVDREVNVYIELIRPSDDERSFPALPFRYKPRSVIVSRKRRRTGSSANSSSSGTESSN
Experiment: protein-binding microarray (PBM); PBM: ~300 nM protein, 6 mM HEPES pH 7.8, 80 mM KCl, 0.5 mM EDTA, 0.5 mM EGTA, 6% glycerol, 35 ng/ul poly-dIdC, 1% milk, 1 h, room temperature; high values mean tight binding
Settings: dsDNA, one strand shown
MEASURE: binding signal (z-score)
The answer is to be given in z-score; state only the numeric part.

Answered cases to consult:
| ITEM_SEQUENCE | SYSTEM_NAME | MEASUREMENT_UNIT | binding signal |
| --- | --- | --- | --- |
| CCGATTAACATCACAAAAGTCCCTGATGTTAATCGGGTCTTGATTCGCTTGACGCTGCTG | GST-Dm-Relish (Drosophila melanogaster, UniProt Q94527 99-473) | z-score | 7.55 |
| CCGATTAACATCAGGCAAATCCCTGATGTTAATCGGGTCTTGATTCGCTTGACGCTGCTG | GST-Dm-Relish (Drosophila melanogaster, UniProt Q94527 99-473) | z-score | 1.36 |
| CCGATTAACATCAGGAAAGTCCATGATGTTAATCGGGTCTTGATTCGCTTGACGCTGCTG | GST-Dm-Relish (Drosophila melanogaster, UniProt Q94527 99-473) | z-score | 3.2 |
| CCGATTAACATCAGGGGGTGGAATGATGTTAATCGGGTCTTGATTCGCTTGACGCTGCTG | GST-Dm-Relish (Drosophila melanogaster, UniProt Q94527 99-473) | z-score | 2.66 |

Attention now turns to another entry.
Exercise: Any idea what its binding signal is? The sequence is `CCGATTAACATCAACAAATCCCCTGATGTTAATCGGGTCTTGATTCGCTTGACGCTGCTG`
Key: 6.61

* * *

Biological target: GST-Nv-NF-kB (Ser allele) (Nematostella vectensis, UniProt A7UNT2 2-411)
Sequence: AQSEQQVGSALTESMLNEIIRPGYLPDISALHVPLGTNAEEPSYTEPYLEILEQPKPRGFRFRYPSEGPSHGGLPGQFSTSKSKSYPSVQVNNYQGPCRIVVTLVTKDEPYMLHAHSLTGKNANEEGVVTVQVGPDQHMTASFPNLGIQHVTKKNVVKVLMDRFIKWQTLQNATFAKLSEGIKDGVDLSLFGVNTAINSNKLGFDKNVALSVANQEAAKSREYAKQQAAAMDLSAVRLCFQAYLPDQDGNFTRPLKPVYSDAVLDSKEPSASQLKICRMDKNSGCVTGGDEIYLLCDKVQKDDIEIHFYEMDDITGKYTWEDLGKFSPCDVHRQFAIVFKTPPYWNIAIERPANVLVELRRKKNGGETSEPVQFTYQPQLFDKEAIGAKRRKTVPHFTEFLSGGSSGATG
Experiment: protein-binding microarray (PBM); PBM: ~300 nM protein, 6 mM HEPES pH 7.8, 80 mM KCl, 0.5 mM EDTA, 0.5 mM EGTA, 6% glycerol, 35 ng/ul poly-dIdC, 1% milk, 1 h, room temperature; Ap Aiptasia and Nv Nematostella (sea anemones) / Co Capsaspora / Aq Amphimedon (sponge) / Dm Drosophila / Hu human; RHD is the Rel homology domain; high values mean tight binding
Details: dsDNA, one strand shown
I'd appreciate it if you could label each record using binding signal and these ranges: low class: < 4 z-score; middle class: ≥ 4 z-score and < 7 z-score; high class: ≥ 7 z-score

The examples below pair each entry with its known result.
| ITEM_SEQUENCE | SYSTEM_NAME | ASSIGNED_CLASS |
| --- | --- | --- |
| CCGATTAACATCAATTTCCCCCGTGATGTTAATCGGGTCTTGATTCGCTTGACGCTGCTG | GST-Nv-NF-kB (Ser allele) (Nematostella vectensis, UniProt A7UNT2 2-411) | high class |
| CCGATTAACATCAACGTGGGGCGTGATGTTAATCGGGTCTTGATTCGCTTGACGCTGCTG | GST-Nv-NF-kB (Ser allele) (Nematostella vectensis, UniProt A7UNT2 2-411) | low class |

Now for another entry.
Exercise: Which category fits this record: `CCGATTAACATCAGGCAACTCCCTGATGTTAATCGGGTCTTGATTCGCTTGACGCTGCTG`
Key: low class
